system: BT-549; assay: NCI tumour cell line growth inhibition, 48 h
Activity calls are given as the source filed them. No stated cut-off is given here; in the data, active = GI50 up to about 1.1 µM and inactive = higher. *1 amine or outer side, *2 acyl side, *3 side chain or, on linkers, in order; H or OH if unused. Where a SMILES comes first, the peptide text is derived from it. Bridges are numbered along the chain shown (N, C = ends). Roman numbers before positions name the chains, in order. [ ]: non-standard residue; d: D form. Actinocin(9to1) = Cc1c2oc3c(C)ccc(C(=O)[*:1])c3nc-2c(C(=O)[*:2])c(N)c1=O; NMeV = CN[CH](C(=O)O)C(C)C; Sar = CNCC(=O)O
Possible outcomes: true (active), false (inactive)

molecule: Nc1ncc(Sc2ccccc2C(=O)O)s1
assigned label: false
--
molecule: CO[C@H]1[C@@H](O)[C@@H](C)O[C@@H](O[C@H]2CC[C@@]3(C)[C@H](CC[C@@H]4[C@@H]3CC[C@]3(C)[C@@H](C5=CC(=O)OC5)CC[C@]43O)C2)[C@@H]1O [ODOROSIDE H]
assigned label: true
--
molecule: O/N=C(/CC(O)(C(F)(F)F)C(F)(F)F)c1ccccc1
assigned label: false
--
molecule: O=C(CC(NC(=O)OCc1ccccc1)C(=O)NC1Cc2ccccc2C1=O)OCc1ccccc1 (configuration not stated)
assigned label: false
--
molecule: Cc1c2oc3c(C)ccc(C(=O)NC4C(=O)NC(C(C)C)C(=O)N5CCCC5C(=O)N(C)CC(=O)N(C)C(C(C)C)C(=O)OC4C)c3nc-2c(C(=O)NC2C(=O)NC(C(C)C)C(=O)N3CCCC3C(=O)N(C)CC(=O)N(C)C(C(C)C)C(=O)OC2C)c(N)c1=O (configuration not stated) (I: TVP[Sar][NMeV] / II: TVP[Sar][NMeV]; ester I:1-I:C, II:1-II:C; linker I:N-II:N via Actinocin(9to1); configuration not given here)
assigned label: true
--
molecule: N#CCCN(CCC#N)c1ccc(/C=C2\N=C(c3ccccc3)N(NC(=O)c3ccncc3)C2=O)cc1
assigned label: false
--
molecule: C[C@@H]1CC[C@@]2(C)C(C(=O)O)=CCCC2[C@@]1(C)CC(=O)c1ccoc1 (some centres not stated)
assigned label: false
--
molecule: O=C1C=Cc2c(Br)sc(Br)c21
assigned label: false
--
molecule: O=C(N/N=C/c1ccccc1)c1c(F)c(F)c(F)c(F)c1F
assigned label: false
--
molecule: CC(=O)Nc1ccc(NC(=O)CC(=O)Nc2ccc(NC(C)=O)cc2)cc1
assigned label: false
--
molecule: Cc1nc2[nH]ccn2c(=O)c1CCCl
assigned label: false
--
molecule: COc1ccc(N2C(=O)CC(c3c[nH]c4ncccc34)C2=O)cc1 (configuration not stated)
assigned label: false
